Each recorded value in this set is attributed to paper PMC4551922.

# Tested on: MBP-FUS (human, UniProt P35637 1-526)
# Sequence (P35637 whole entry): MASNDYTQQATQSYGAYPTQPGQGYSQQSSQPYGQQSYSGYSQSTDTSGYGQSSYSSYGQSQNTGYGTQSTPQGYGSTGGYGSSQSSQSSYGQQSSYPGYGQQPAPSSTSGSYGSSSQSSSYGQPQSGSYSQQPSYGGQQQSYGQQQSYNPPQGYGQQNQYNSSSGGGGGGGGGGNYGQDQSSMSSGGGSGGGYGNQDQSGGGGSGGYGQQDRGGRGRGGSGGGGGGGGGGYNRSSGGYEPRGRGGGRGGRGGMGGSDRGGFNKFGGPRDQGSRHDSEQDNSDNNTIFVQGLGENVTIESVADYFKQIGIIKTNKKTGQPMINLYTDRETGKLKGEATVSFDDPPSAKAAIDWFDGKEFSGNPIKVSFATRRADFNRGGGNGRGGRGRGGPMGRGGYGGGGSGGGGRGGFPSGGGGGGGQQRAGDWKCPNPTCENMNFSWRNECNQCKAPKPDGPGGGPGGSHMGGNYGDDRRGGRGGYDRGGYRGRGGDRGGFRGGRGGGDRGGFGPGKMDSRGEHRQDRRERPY
# Procedure details: EMSA; EMSA: 50 mM Tris-HCl pH 7.4, 150 mM KCl, 2 mM MgCl2, 2 mM DTT, 0.1 mg/ml yeast tRNA, 0.1 mg/ml BSA, room temperature, 30 min, trace 32P-RNA
# Settings: protein: recombinant; tags: N-terminal His6-MBP (not cleaved); chain copies: 4; label: 32P
Quantity: Kd
Record the result as a number with its unit.

Inquiry: Find the recorded Kd belonging to ATTGAGGAGCAGCAGAGAAGTTGGAGTGAAGGCAGAGAGGGGTTAAGG (ssDNA) [prD ssDNA] and report it.
Reply text: 280 nM
